- system: human CD33 D51A (human, UniProt P20138 18-364)
- Sequence (P20138 18-364 D51A limits assumed): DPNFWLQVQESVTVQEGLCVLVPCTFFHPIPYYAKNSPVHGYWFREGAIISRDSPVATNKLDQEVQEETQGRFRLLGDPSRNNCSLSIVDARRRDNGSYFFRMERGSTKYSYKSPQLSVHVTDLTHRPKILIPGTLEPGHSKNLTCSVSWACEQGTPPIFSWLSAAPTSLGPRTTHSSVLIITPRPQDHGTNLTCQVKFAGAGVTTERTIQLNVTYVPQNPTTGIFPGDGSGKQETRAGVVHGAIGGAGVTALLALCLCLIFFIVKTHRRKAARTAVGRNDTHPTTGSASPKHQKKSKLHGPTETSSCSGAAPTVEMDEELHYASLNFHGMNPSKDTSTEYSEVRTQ
- assayInfo: alanine scan, flow cytometry;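 note: HEK293-T cells transiently expressing single-residue alanine mutants of CD33 (alanine swapped to serine), antibody binding read by fluorescence in duplicate, background-subtracted, expressed relative to wild-type CD33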
readoutName: Mean % WT Binding (% WT)
Respond with the bare value in % WT.

binder="Refmab #4 (antibody, V domains shown, Full-length format is human IgG1 Fc silent (PG-LALA); The alanine scan used IgG or Fab) VH: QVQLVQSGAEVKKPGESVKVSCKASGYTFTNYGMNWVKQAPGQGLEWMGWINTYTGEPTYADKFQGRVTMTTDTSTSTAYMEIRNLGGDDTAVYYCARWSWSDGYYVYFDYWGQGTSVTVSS VL: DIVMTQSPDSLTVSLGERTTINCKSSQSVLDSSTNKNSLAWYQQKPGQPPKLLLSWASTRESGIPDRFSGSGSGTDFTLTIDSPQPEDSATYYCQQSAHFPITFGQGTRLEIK" units="% WT" observed=36
binder="Refmab #1 (antibody, V domains shown, Full-length format is human IgG1 (Absolute Antibody Ab00283-10.0); The alanine scan used IgG or Fab; also called hP67.6) VH: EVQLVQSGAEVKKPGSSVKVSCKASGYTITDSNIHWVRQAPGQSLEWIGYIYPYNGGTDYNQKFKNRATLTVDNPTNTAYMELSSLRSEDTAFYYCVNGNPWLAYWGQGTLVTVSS VL: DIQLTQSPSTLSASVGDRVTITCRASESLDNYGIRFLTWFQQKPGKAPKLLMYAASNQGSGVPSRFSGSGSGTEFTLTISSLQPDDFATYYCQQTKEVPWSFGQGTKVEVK" units="% WT" observed=82.4
binder="Refmab #3 (antibody, V domains shown, Full-length format is human IgG1 Fc silent (PG-LALA); The alanine scan used IgG or Fab) VH: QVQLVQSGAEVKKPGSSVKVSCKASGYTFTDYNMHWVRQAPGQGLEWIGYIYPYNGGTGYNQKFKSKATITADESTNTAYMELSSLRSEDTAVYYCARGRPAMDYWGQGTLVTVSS VL: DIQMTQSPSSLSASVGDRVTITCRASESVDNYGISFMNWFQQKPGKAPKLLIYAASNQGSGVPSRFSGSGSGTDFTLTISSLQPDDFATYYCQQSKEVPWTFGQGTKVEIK" units="% WT" observed=126

Next binder, Mean % WT Binding to be filled in.
[ask] What value of measured Mean % WT Binding is listed for Refmab #2 (antibody, V domains shown, Full-length format is human IgG1 Fc silent (PG-LALA); The alanine scan used IgG or Fab) VH: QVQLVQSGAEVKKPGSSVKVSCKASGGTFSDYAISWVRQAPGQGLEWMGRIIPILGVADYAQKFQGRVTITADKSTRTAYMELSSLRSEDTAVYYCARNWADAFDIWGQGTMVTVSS VL: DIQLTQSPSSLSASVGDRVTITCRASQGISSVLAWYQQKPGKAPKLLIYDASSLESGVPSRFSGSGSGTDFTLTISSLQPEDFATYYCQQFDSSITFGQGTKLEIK ?
[reply] 59

Ref: patent US20260242735A1
